From: ChEMBL document CHEMBL3217478

# Test system: HT-29
# Assay overview: Cytoprotective activity against TNF-alpha, smac mimetic, z-VAD-induced necrosis in human HT-29 cells assessed as cell survival by measuring cellular ATP level at 4 uM after 24 hrs by Cell Titer-Glo assay relative to control
# Type: functional
# Condition set: HT-29, 24 h, read-out: Survival
Below is a list of entries, each paired with its recorded viability at 4 µM value.
Only the number, expressed in %, is required.

COc1nccnc1NS(=O)(=O)c1ccc(NC(=O)/C=C/c2ccc(Br)s2)cc1; 31.8
COc1nccnc1NS(=O)(=O)c1ccc(NC(=O)/C=C/c2ccc([N+](=O)[O-])s2)cc1; 80.3
C#CCOc1nccnc1NS(=O)(=O)c1ccc(NC(=O)/C=C/c2ccc([N+](=O)[O-])s2)cc1; 90.8

Data point: C#CCOc1nccnc1NS(=O)(=O)c1ccc(NC(=O)/C=C/c2sccc2[N+](=O)[O-])cc1 ; viability at 4 µM = 19.8

Data point: O=C(/C=C/c1ccc([N+](=O)[O-])s1)Nc1ccc(S(=O)(=O)Nc2nccnc2O)cc1 ; viability at 4 µM = 90.4

Data point: COc1nccnc1NS(=O)(=O)c1ccc(NC(=O)CCc2ccc([N+](=O)[O-])s2)cc1 ; viability at 4 µM = 29.9

Data point: COc1nccnc1NS(=O)(=O)c1ccc(NC(=O)/C=C/c2cccc([N+](=O)[O-])c2)cc1 ; viability at 4 µM = 32

Data point: Cc1cc(C)nc(NS(=O)(=O)c2ccc(NC(=O)/C=C/c3ccc([N+](=O)[O-])s3)cc2)n1 ; viability at 4 µM = 79.2

Data point: COc1nccnc1NS(=O)(=O)c1ccc(NC(=O)CCc2cccs2)cc1 ; viability at 4 µM = 30.4

###

Below is a list of entries, each paired with its recorded viability at 4 µM value.
# Test system: HT-29
# Assay overview: Cytoprotective activity against TNF-alpha, smac mimetic, z-VAD-induced necrosis in human HT-29 cells assessed as cell survival by measuring cellular ATP level at 4 uM after 24 hrs by Cell Titer-Glo assay relative to control
# Type: functional
# Condition set: HT-29, 24 h, read-out: Survival
Only the number, expressed in %, is required.

Please review the following examples before continuing.
O=C(/C=C/c1ccc([N+](=O)[O-])s1)Nc1ccc(S(=O)(=O)Nc2nccnc2OCc2ccccc2)cc1; 92.2
COc1nccnc1NS(=O)(=O)c1ccc(NC(=O)/C=C/c2cccs2)cc1; 29.5

Data point: COc1nccnc1NS(=O)(=O)c1ccc(NC(=O)/C=C/c2ccc([N+](=O)[O-])cc2)cc1 ; viability at 4 µM = 32.2

Data point: COc1nc(Br)cnc1NS(=O)(=O)c1ccc(NC(=O)/C=C/c2ccc([N+](=O)[O-])s2)cc1 ; viability at 4 µM = 90.8
